Conditions: in ethanol, 297.7 K
Observable: solubility (mole fraction)

Ask | For the molecule shown here, O=c1[nH]cc(F)c(=O)[nH]1 , give the reported solubility (mole fraction).
Reply | 0.00167

###

Details: in isopropanol, 330 K
Observable: solubility (mole fraction)
Answers are plain numbers.

Ask | For the compound shown here, O=c1[nH]cc(F)c(=O)[nH]1 , give the reported solubility (mole fraction).
Reply | 0.00381

###

Details: in ethanol, 325.6 K
Observable: solubility (mole fraction)
One number for each entry.

Ask | For the molecule shown here, O=c1[nH]cc(F)c(=O)[nH]1 , give the reported solubility (mole fraction).
Reply | 0.00366
